- Test system: UOK257-FLCN^+ cells
- method: SRB growth inhibition assay in UOK257-FLCN^+ cells
- Type: cell-based, human
- conditions.used: 72 hours continuous exposure, mean ± SE (n), read-out: GI50 nM in UOK-FLCN^+
Reported GI50 values for a set of molecules

# molecule, GI50 / nM
rows = [
    ("COc1cccc2c1C(=O)c1c(O)c3c(c(O)c1C2=O)C[C@@](O)(C(=O)CO)C[C@@H]3O[C@H]1C[C@H](N2CCOCC2C#N)[C@H](O)[C@H](C)O1 (some centres unmarked)", 0.62),
    ("CO[C@H](C(=O)[C@@H](O)[C@@H](C)O)C1Cc2cc3cc(OC4CC(OC5CC(O)C(O)C(C)O5)C(O)C(C)O4)c(C)c(O)c3c(O)c2C(=O)[C@H]1OC1CC(OC2CC(OC3CC(C)(O)C(O)C(C)O3)C(O)C(C)O2)C(O)C(C)O1 (some centres unmarked)", 634),
    ("CC[C@H](C)[C@H]1NC(=O)[C@@H](NC(=O)[C@@H](CC(C)C)N(C)C(=O)[C@@H]2CCCN2C(=O)C(C)O)[C@@H](C)OC(=O)[C@H](Cc2ccc(OC)cc2)N(C)C(=O)[C@@H]2CCCN2C(=O)[C@H](CC(C)C)NC(=O)[C@@H](C)C(=O)[C@H](C(C)C)OC(=O)C[C@@H]1O (some centres unmarked)", 6.53),
    ("COc1cccc2c1C(=O)c1c(O)c3c(c(O)c1C2=O)C[C@@](O)(C(C)=O)C[C@@H]3O[C@H]1C[C@H](N(Cc2ccccc2)Cc2ccccc2)[C@@H](O)[C@H](C)O1", 1270),
    ("COc1cccc2c1C(=O)c1c(O)c3c(c(O)c1C2=O)C[C@@](O)(C(=O)CO)C[C@@H]3O[C@H]1C[C@H](N2CCOCC2)[C@H](O)[C@H](C)O1", 0.44),
]
